Biological target: TbINO1 (Trypanosoma brucei brucei, UniProt Q5QQ46)
Construct: Hexa-His (N); made in house; host or cells: E. coli BL21 Rosetta (DE3)
Sequence (Q5QQ46 1-528): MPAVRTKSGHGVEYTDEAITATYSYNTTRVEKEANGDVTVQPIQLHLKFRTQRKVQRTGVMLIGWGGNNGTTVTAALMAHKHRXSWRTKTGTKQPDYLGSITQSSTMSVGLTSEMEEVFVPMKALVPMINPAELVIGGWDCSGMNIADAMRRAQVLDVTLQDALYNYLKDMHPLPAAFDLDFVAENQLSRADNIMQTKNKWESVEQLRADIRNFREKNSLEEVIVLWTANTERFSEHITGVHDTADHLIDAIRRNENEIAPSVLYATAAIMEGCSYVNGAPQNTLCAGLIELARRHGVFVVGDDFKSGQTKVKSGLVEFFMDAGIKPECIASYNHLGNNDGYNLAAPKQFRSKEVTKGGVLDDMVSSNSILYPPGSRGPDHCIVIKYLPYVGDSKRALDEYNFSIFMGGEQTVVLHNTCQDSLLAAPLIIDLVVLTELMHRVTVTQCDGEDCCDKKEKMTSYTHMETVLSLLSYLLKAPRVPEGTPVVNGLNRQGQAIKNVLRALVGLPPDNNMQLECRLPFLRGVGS
Assay: biochemical
Assay type: biochemical
pIC50: −log10 of the molar value.
measurement name: pIC50

1) O=CC[C@@H](O)[C@H](O)[C@H](O)CO [2-Deoxyglucose]    < 2.00
2) O=P(O)(O)OC[C@H]1OC(O)[C@H](O)[C@@H](O)[C@@H]1F (stereo partly drawn) [4-F-Glucose-6-P, 4-fluoro-glucose-6-phospahte]    < 2.00
3) O=P(O)(O)OC[C@H]1OC(O)[C@H](O)[C@@H](F)[C@@H]1O (stereo partly drawn) [3-F-Glucose-6-P, 3-fluoro-glucose-6-phospahte]    2.60
4) O=CC(O)CO (stereo not drawn) [Glyceraldehyde, glyceraldehyde]    < 2.00
5) O=C(O)[C@H](O)[C@@H](O)[C@H](O)[C@H](O)COP(=O)(O)O [6-phosphogluconic acid]    < 2.00
6) O=C[C@@H](O)[C@@H](O)[C@H](O)[C@H](O)COP(=O)(O)O [Mannose-6-P, mannose-6-phosphate]    < 2.00
7) CC(=O)C(=O)O [Pyruvate, pyruvate]    < 2.00
8) O=C[C@H](O)[C@@H](O)[C@@H](O)[C@H](O)COP(=O)(O)O [Galactose-6-P, galactose-6-phosphate]    < 2.00
9) O=P(O)(O)OC[C@H]1OC(O)C[C@@H](O)[C@@H]1O (stereo partly drawn) [2-Deoxyglucose-6-P]    2.40

Data provenance: patent US10131928B2
